The reported numbers originate from PubChem BioAssay (NCI).

System: RXF 393 renal
Experiment: NCI tumour cell line growth inhibition, 48 h; in the data active = GI50 below about 0.43 µM; inactive = the rest
The reply should be one of these categories: active, inactive

Would you mind telling me which call this test gave O=C1/C(=C/c2ccccc2[N+](=O)[O-])COc2ccc(O)c(O)c21 ?
active

Would you mind telling me which call this test gave Oc1cccc(-c2nc(-c3ccccc3)[nH]c2-c2ccncc2)c1 ?
inactive

Would you mind telling me which call this test gave Cc1cc(C#Cc2ccccc2)ccc1-n1c(/C=C/c2cc(O)ccc2O)nc2ccccc2c1=O ?
inactive

Would you mind telling me which call this test gave N=C1/C(=C2\Nc3ccccc3S2)CC(=O)N1c1ccc(SC(F)F)cc1 ?
inactive

Would you mind telling me which call this test gave OCc1ccc(N(Cc2ccc(F)cc2)CC2CCC2)cc1Cl ?
inactive

Would you mind telling me which call this test gave O=C1NC(=N[C@H](CO)c2ccccc2)S/C1=C\c1ccc2ncccc2c1 ?
inactive

Would you mind telling me which call this test gave Fc1ccc(C2C3CCOc4c(ccc5ccccc45)C3=NN2c2ccccc2)cc1 (stereo not given) ?
inactive

Would you mind telling me which call this test gave COc1c2ccccc2c(O)c2c(=O)ccn(C)c12 ?
inactive

Would you mind telling me which call this test gave CC/C(=N/N=C(N)N)c1ccc(NC(=O)Nc2ccc(/C(CC)=N/N=C(N)N)cc2)cc1 ?
inactive

Would you mind telling me which call this test gave N#Cc1c(N)c(C#N)c2c(c1-c1ccc(Cl)cc1)COc1ccc(F)cc1-2 ?
inactive

Would you mind telling me which call this test gave CC[C@@]1(O)C(=O)NCc2c1cc1n(c2=O)Cc2cc3c(NC(C)=O)cccc3nc2-1 ?
inactive

Would you mind telling me which call this test gave CC1COCCN1CC#CCOC(=O)c1cc2ccccc2oc1=O (stereo not given) ?
inactive

Would you mind telling me which call this test gave CC1(O)COCCCCOc2c(CN)cccc2NC(=O)c2nc(cnc2N)-c2ccc(cc2)S(=O)(=O)C(C)(C)C1 (stereo not given) ?
active

Would you mind telling me which call this test gave COc1cc(Cn2c(SCC(=O)Nc3ccc(Cl)cc3)nc3ccccc3c2=O)cc(OC)c1OC ?
inactive

Would you mind telling me which call this test gave CCOC(=O)c1cc(-c2ccccc2)[nH]c1N/N=C/c1c(Cl)cccc1Cl ?
inactive
